Assign shrunken log2 fold change to each entry below.
# Test system: Escherichia coli TOP10;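 note: peptides expressed intracellularly from a pBAD plasmid library in pooled LB shake-flask culture, induced with 0.3% L-arabinose, DNA abundance read by NGS, three biological replicates, DESeq2 with apeglm shrinkage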
# protocol.description: shrunken log2 fold change of peptide-encoding DNA abundance (4.5 h post-induction vs induction); higher = less antimicrobial activity (less host growth inhibition)
# measurement.setup: time post-induction: 4.5 h; library: site-saturation at positions 5, 18, 19, 20
Just the number.

Ask: // shrunken log2 fold change lookup, key: RRIRYRPPRLPRPRPRPVVPPRP
Result: -0.0502

Ask: I have this sequence here, RRIRPRPPRLPRPRPRPEDAPRP , and I need its recorded shrunken log2 fold change.
Result: 0.0442

Ask: Dear colleague, I am looking for the recorded shrunken log2 fold change of the following sequence: RRIRNRPPRLPRPRPRPVWSPRP
Result: 0.0637

Ask: What value of shrunken log2 fold change has been recorded for this entry: RRIRARPPRLPRPRPRPAFIPRP
Result: 0.142

Ask: # input sequence: RRIRPRPPRLPRPRPRPEFLPRP ; wanted: its shrunken log2 fold change
Result: -0.101

Ask: Item under review: RRIRVRPPRLPRPRPRPLMAPRP . Reported shrunken log2 fold change?
Result: 0.049

Ask: // shrunken log2 fold change lookup, key: RRIRTRPPRLPRPRPRPPFIPRP
Result: -0.177

Ask: What value of measured shrunken log2 fold change is listed for RRIRARPPRLPRPRPRPFRYPRP ?
Result: -0.283

Ask: Need shrunken log2 fold change of RRIRHRPPRLPRPRPRPMMHPRP , thanks.
Result: 0.117

Ask: Any idea what shrunken log2 fold change was measured for RRIRMRPPRLPRPRPRPNGAPRP ?
Result: 0.0765

Ask: # shrunken log2 fold change lookup, item RRIRHRPPRLPRPRPRPFMHPRP
Result: -0.377

Ask: Can you look up the measured shrunken log2 fold change of RRIRHRPPRLPRPRPRPKERPRP for me?
Result: -0.0122

Ask: Record request: shrunken log2 fold change value, item RRIRARPPRLPRPRPRPWPLPRP
Result: -0.0297

Ask: Requested field: shrunken log2 fold change. Item: RRIRIRPPRLPRPRPRPLSWPRP
Result: -0.0609

Ask: Can you look up the measured shrunken log2 fold change of RRIRLRPPRLPRPRPRPEQSPRP for me?
Result: -0.0314

Ask: Using the record for RRIRLRPPRLPRPRPRPDKQPRP , report its shrunken log2 fold change.
Result: -6.78e-05

Ask: So what's the measured shrunken log2 fold change for this one? RRIRMRPPRLPRPRPRPELTPRP
Result: 3.52

Ask: shrunken log2 fold change for RRIRPRPPRLPRPRPRPSQAPRP ?
Result: 0.106

Ask: For the sequence shown here, RRIRCRPPRLPRPRPRPWVRPRP , give the reported shrunken log2 fold change.
Result: -0.0386

Ask: For the sequence RRIRERPPRLPRPRPRPDNWPRP , what shrunken log2 fold change is on record?
Result: -0.103

Ask: Using the record for RRIRFRPPRLPRPRPRPPCKPRP , report its shrunken log2 fold change.
Result: 0.352

Ask: Item under review: RRIRRRPPRLPRPRPRPMGLPRP . Reported shrunken log2 fold change?
Result: -0.0617

Where do the numbers come from? From the supplement of paper PMC9112550.
